- system-tested: Full-length human BclXL (residues 1-233) (human, UniProt Q07817-1 1-233)
- Sequence (Q07817 whole entry, the tested form may be a part): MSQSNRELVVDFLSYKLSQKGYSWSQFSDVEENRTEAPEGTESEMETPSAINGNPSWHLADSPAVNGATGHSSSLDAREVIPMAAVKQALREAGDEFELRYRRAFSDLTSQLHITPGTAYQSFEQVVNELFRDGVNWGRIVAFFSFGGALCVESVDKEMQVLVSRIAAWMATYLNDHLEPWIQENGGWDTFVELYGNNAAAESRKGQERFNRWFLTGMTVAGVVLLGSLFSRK
- measurement-notes: ITC
measurement-label: Kd (µM)
Give the quantity in µM, number only.

In: Can you look up the measured Kd of DIIRNIARHLAQVGDSMDRS [Bid_BH3 peptide (20-mer spanning residues 81-100, the BH3 domain within human Bid)] for me?
Out: 8.3
